- Tested on: Enterococcus faecium PEG 13-17-59
- ASSAY PROTOCOL: MHK against further strains (Table 2)
- Assay type: cell-based
- TEST CONTEXT: Nr. 29 Enterococcus faecium PEG 13-17-59, clinical isolate
Listing of entries alongside the reported MHK.

Ask: Tell us which MHK value is on record for `COc1c(NC(=O)c2ccc(NC(=O)c3ccc(NC(=O)[C@@H](CN(C)C)NC(=O)c4ccc(NC(=O)/C(C)=C/c5ccc(O)cc5)cc4)cc3)c(OC)c2O)ccc(C(=O)O)c1O`
Result: 32 mg/L

Ask: Tell us which MHK value is on record for COc1c(NC(=O)c2ccc(NC(=O)c3ccc(NC(=O)C(Cc4c[nH]nn4)NC(=O)c4ccc(NC(=O)/C(C)=C/c5ccc(O)cc5)cc4)cc3)c(OC)c2O)ccc(C(=O)O)c1O (stereo not shown)
Result: 8 mg/L

Ask: Tell us which MHK value is on record for `COc1c(NC(=O)c2ccc(NC(=O)c3ccc(NC(=O)[C@H](CN(C)C)NC(=O)c4ccc(NC(=O)/C(C)=C/c5ccc(O)cc5)cc4)cc3)c(OC)c2O)ccc(C(=O)O)c1O`
Result: 32 mg/L

Next, consider the following compound.
Ask: Tell us which MHK value is on record for `COc1c(NC(=O)c2ccc(NC(=O)c3ccc(NC(=O)[C@H](Cc4c[nH]cn4)NC(=O)c4ccc(NC(=O)/C(C)=C/c5ccc(O)cc5)cc4)cc3)c(OC)c2O)ccc(C(=O)O)c1O`
Result: 32 mg/L

* * *

- System: Micrococcus luteus DSM1790
- ASSAY PROTOCOL: Microdilution assay, MIC
- Format: cell-based
- TEST CONTEXT: DSM1790, 20 h, read-out: MIC M. luteus DSM1790
READOUT KIND: log10 MIC (log10 of the value in µg/mL)
Base-10 log of MIC, unit µg/mL.

Please review the following examples before continuing.
Ask: Would you please give the reported log10 MIC of COc1c(NC(=O)c2ccc(NC(=O)c3ccc(NC(=O)[C@H](Cc4c[nH]nn4)NC(=O)c4ccc(NC(=O)/C(C)=C/c5ccc(F)cc5)cc4)cc3)c(OC)c2O)ccc(C(=O)O)c1O [Compound 18] with Micrococcus luteus DSM1790?
Result: 2.40

Ask: Would you please give the reported log10 MIC of COc1c(NC(=O)c2ccc(NC(=O)c3ccc(NC(=O)C(Cc4c[nH]nn4)NC(=O)c4ccc(NC(=O)/C(C)=C/c5ccc(O)cc5)cc4)cc3)c(OC)c2O)ccc(C(=O)O)c1O [Compound 3, L-Azahis-Albicidin] with Micrococcus luteus DSM1790?
Result: 2.70

Next:
Ask: Would you please give the reported log10 MIC of COc1c(NC(=O)c2ccc(NC(=O)c3ccc(NC(=O)C(Cc4cn(C)cn4)NC(=O)c4ccc(NC(=O)/C(C)=C/c5ccc(O)cc5)cc4)cc3)c(OC)c2O)ccc(C(=O)O)c1O [Compound 5, L-Methyl-His-Albicidin] with Micrococcus luteus DSM1790?
Result: 3.60

* * *

- Tested on: E. coli DSM 1116
- ASSAY PROTOCOL: Microdilution assay, MIC
- Assay type: cell-based
- TEST CONTEXT: Escherichia coli, DSM1116, 20 h, read-out: MIC E. coli DSM1116
READOUT KIND: log10 MIC (log10 of the value in µg/mL)
Base-10 log of MIC, unit µg/mL.

Ask: Tell us which log10 MIC value is on record for `COc1c(NC(=O)c2ccc(NC(=O)c3ccc(NC(=O)[C@H](Cc4cnn[nH]4)NC(=O)c4ccc(NC(=O)/C(C)=C/c5ccc(O)cc5)cc4)cc3O)c(OC)c2O)ccc(C(=O)O)c1O`
Result: 1.49

Ask: Tell us which log10 MIC value is on record for `COc1c(NC(=O)c2ccc(NC(=O)c3ccc(NC(=O)C4(NC(=O)c5ccc(NC(=O)/C(C)=C/c6ccc(O)cc6)cc5)CCN(C)CC4)cc3)c(OC)c2O)ccc(C(=O)O)c1O`
Result: 3.30

Ask: Tell us which log10 MIC value is on record for `COc1c(NC(=O)c2ccc(NC(=O)c3ccc(NC(=O)[C@H](CN(C)C)NC(=O)c4ccc(NC(=O)c5ccc(O)cc5)cc4)cc3)c(OC)c2O)ccc(C(=O)O)c1O`
Result: 3.30

Ask: Tell us which log10 MIC value is on record for `CCOc1c(NC(=O)c2ccc(NC(=O)c3ccc(NC(=O)[C@H](Cc4c[nH]nn4)NC(=O)c4ccc(NC(=O)/C(C)=C/c5ccc(O)cc5)cc4)cc3)c(OCC)c2O)ccc(C(=O)O)c1O`
Result: 1.20

Ask: Tell us which log10 MIC value is on record for `COc1c(NC(=O)c2ccc(NC(=O)c3ccc(NC(=O)[C@@H](Cc4c[nH]cn4)NC(=O)c4ccc(NC(=O)/C(C)=C/c5ccc(O)cc5)cc4)cc3)c(OC)c2O)ccc(C(=O)O)c1O`
Result: 2.10

Ask: Tell us which log10 MIC value is on record for COc1c(NC(=O)c2ccc(NC(=O)c3ccc(NC(=O)C(CN4CCOCC4)NC(=O)c4ccc(NC(=O)/C(C)=C/c5ccc(O)cc5)cc4)cc3)c(OC)c2O)ccc(C(=O)O)c1O (stereo not drawn)
Result: 2.70

Ask: Tell us which log10 MIC value is on record for `C/C(=C\c1ccc(O)cc1)C(=O)Nc1ccc(C(=O)N[C@@H](CC#N)C(=O)Nc2ccc(C(=O)Nc3ccc(C(=O)Nc4ccc(C(=O)O)c(O)c4)c(O)c3)cc2)cc1`
Result: 4.20

Ask: Tell us which log10 MIC value is on record for `COc1c(NC(=O)c2ccc(NC(=O)c3ccc(NC(=O)[C@H](Cc4c[nH]nn4)NC(=O)c4ccc(NC(=O)/C(C)=C/c5ccc(F)cc5)cc4)cc3)c(OC)c2O)ccc(C(=O)O)c1O`
Result: 1.49

* * *

- Tested on: Escherichia coli PEG 10-2-81
- ASSAY PROTOCOL: MHK against further strains (Table 2)
- Format: cell-based
- TEST CONTEXT: Nr. 10 Escherichia coli PEG 10-2-81, clinical isolate
READOUT KIND: MHK (mg/L)
Write the value in mg/L as a bare number.

Ask: Would you please give the reported MHK of COc1c(NC(=O)c2ccc(NC(=O)c3ccc(NC(=O)[C@H](Cc4c[nH]cn4)NC(=O)c4ccc(NC(=O)/C(C)=C/c5ccc(O)cc5)cc4)cc3)c(OC)c2O)ccc(C(=O)O)c1O [Compound 1, L-His-albicidin] with Escherichia coli PEG 10-2-81?
Result: 0.5

* * *

- Test system: Klebsiella pneumoniae 310-1-54
- ASSAY PROTOCOL: MHK against further strains (Table 2)
- Type: cell-based
- TEST CONTEXT: Nr. 14 Klebsiella pneumoniae 310-1-54, clinical isolate
READOUT KIND: MHK (mg/L)
Write the value in mg/L as a bare number.

Please review the following examples before continuing.
Ask: Tell us which MHK value is on record for `COc1c(NC(=O)c2ccc(NC(=O)c3ccc(NC(=O)[C@H](CN(C)C)NC(=O)c4ccc(NC(=O)/C(C)=C/c5ccc(O)cc5)cc4)cc3)c(OC)c2O)ccc(C(=O)O)c1O`
Result: 32

Ask: Tell us which MHK value is on record for `COc1c(NC(=O)c2ccc(NC(=O)c3ccc(NC(=O)[C@@H](CN(C)C)NC(=O)c4ccc(NC(=O)/C(C)=C/c5ccc(O)cc5)cc4)cc3)c(OC)c2O)ccc(C(=O)O)c1O`
Result: 32

Ask: Tell us which MHK value is on record for `COc1c(NC(=O)c2ccc(NC(=O)c3ccc(NC(=O)[C@H](Cc4c[nH]cn4)NC(=O)c4ccc(NC(=O)/C(C)=C/c5ccc(O)cc5)cc4)cc3)c(OC)c2O)ccc(C(=O)O)c1O`
Result: 32

Next:
Ask: Tell us which MHK value is on record for COc1c(NC(=O)c2ccc(NC(=O)c3ccc(NC(=O)C(Cc4c[nH]nn4)NC(=O)c4ccc(NC(=O)/C(C)=C/c5ccc(O)cc5)cc4)cc3)c(OC)c2O)ccc(C(=O)O)c1O (stereo not shown)
Result: 32

* * *

- System: S. typhimurium TA100
- ASSAY PROTOCOL: Microdilution assay, MIC
- Assay type: cell-based
- TEST CONTEXT: Salmonella enterica, 20 h, read-out: MIC S. typhimurium TA100
- Protocol: The tests were performed using the micro dilution method. The determination of MIC values was performed according to the ninth edition of the Approved Standard M07-A9 (CLSI. Methods for Dilution Antimicrobial Susceptibility Tests for Bacteria That Grow Aerobically; Approved Standard—Ninth Edition. CLSI document M07-A9. Wayne, Pa.: Clinical and Laboratory Standards Institute; 2012.) […] Both microdilution trays and agar plates were incubated at 37° C. for 20 h and subsequently analyzed visually.
Listing of entries alongside the reported MIC.
Write the value in µg/mL as a bare number.

Please review the following examples before continuing.
Ask: Would you please give the reported MIC of COc1c(NC(=O)c2ccc(NC(=O)c3ccc(NC(=O)[C@H](CN(C)C)NC(=O)c4ccc(NC(=O)c5ccc(O)cc5)cc4)cc3)c(OC)c2O)ccc(C(=O)O)c1O [Compound 19] with S. typhimurium TA100?
Result: 500

Ask: Would you please give the reported MIC of COc1c(NC(=O)c2ccc(NC(=O)c3ccc(NC(=O)[C@@H](Cc4c[nH]cn4)NC(=O)c4ccc(NC(=O)/C(C)=C/c5ccc(O)cc5)cc4)cc3)c(OC)c2O)ccc(C(=O)O)c1O [Compound 15, D-His-albicidin] with S. typhimurium TA100?
Result: 125

Ask: Would you please give the reported MIC of C#CCOc1ccc(C(=O)Nc2ccc(C(=O)NC(CC3(C)N=N3)C(=O)Nc3ccc(C(=O)Nc4ccc(C(=O)Nc5ccc(C(=O)O)c(O)c5OC)c(O)c4OC)cc3)cc2)cc1 (centres unmarked) [Compound 11] with S. typhimurium TA100?
Result: 16

Ask: Would you please give the reported MIC of COc1c(NC(=O)c2ccc(NC(=O)c3ccc(NC(=O)C(CN4CCOCC4)NC(=O)c4ccc(NC(=O)/C(C)=C/c5ccc(O)cc5)cc4)cc3)c(OC)c2O)ccc(C(=O)O)c1O [Compound 4, L-Morpholino-Albicidin] with S. typhimurium TA100?
Result: 63

Next:
Ask: Would you please give the reported MIC of COc1c(NC(=O)c2ccc(NC(=O)c3ccc(NC(=O)[C@H](Cc4c[nH]cn4)NC(=O)c4ccc(NC(=O)/C(C)=C/c5ccc(O)cc5)cc4)cc3)c(OC)c2O)ccc(C(=O)O)c1O [Compound 1, L-His-albicidin] with S. typhimurium TA100?
Result: 31
